src = patent US20130225488A1

- Assayed Target: Human GLP-1 receptor (human, UniProt P43220 24-463)
- Sequence (P43220 24-463): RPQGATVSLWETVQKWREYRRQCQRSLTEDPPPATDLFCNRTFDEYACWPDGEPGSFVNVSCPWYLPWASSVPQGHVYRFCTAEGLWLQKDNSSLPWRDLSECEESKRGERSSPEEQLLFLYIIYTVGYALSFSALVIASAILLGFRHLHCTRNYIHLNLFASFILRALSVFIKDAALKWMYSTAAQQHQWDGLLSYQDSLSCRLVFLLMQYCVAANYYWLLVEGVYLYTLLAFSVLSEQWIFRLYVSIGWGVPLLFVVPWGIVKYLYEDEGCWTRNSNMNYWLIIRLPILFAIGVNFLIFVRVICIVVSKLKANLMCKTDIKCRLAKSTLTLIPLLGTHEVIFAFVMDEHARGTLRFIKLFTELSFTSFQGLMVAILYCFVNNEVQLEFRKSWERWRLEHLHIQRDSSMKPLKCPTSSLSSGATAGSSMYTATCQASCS
- Assay Summary: cell-based or functional assay
Where no end group is shown, it is not given here. [ ]: non-standard residue; d: D form. αMePhe(2-F) = C[C@](N)(Cc1ccccc1F)C(=O)O; Ac3c = NC1(C(=O)O)CC1; Aib = CC(C)(N)C(=O)O
Readout Type: cAMP release, % activity with respect to control; test compound 100 nM (%)
// return numeric value only (unit: %, not printed)

Task item: If you can, please state the reported cAMP release, % activity with respect to control; test compound 100 nM value of HAQGT[αMePhe(2-F)]TSD[Bip(OMe)][Bip(2F)] [Seq. ID. No. 27: HAQGT-(α-Me-2F-Phe)-TSD-Bip(OMe)-Bip(2F)] .
Reply: 92

Task item: // same read-out, input: HAQGT[αMePhe(2-F)]TSD[Bip(OMe)][Bip(2Me)] [Seq. ID. No. 25: HAQGT-(α-Me-2F-Phe)-TSD-Bip(OMe)-Bip(2Me)]
Reply: 85

Task item: What do we get for HXQGTXTSDXX (ACP at 2; α-Me-2F-Phe at 6; Bip(OMe) at 10; Bip(2Me) at 11) [Seq. ID. No. 33: H-(ACP)-QGT-(α-Me-2F-Phe)-TSD-Bip(OMe)-Bip(2Me)] ?
Reply: 99

Task item: How about this binder: HXQGTXTSDXX (Aib at 2; α-Me-2F-Phe at 6; Bip(OMe) at 10; Bip(2Me) at 11) [Seq. ID. No. 29: H-Aib-QGT-(α-Me-2F-Phe)-TSD-Bip(OMe)-Bip(2Me)]
Reply: 99

Task item: // query: HXQGTXTSDXX (not fully specified; ACP at 2; α-Me-2F-Phe at 6; Bip(OMe) at 10; Bip(2F) at 11) [Seq. ID. No. 35: H-(ACP)-QGT-(α-Me-2F-Phe)-TSD-Bip(OMe)-Bip(2F)]
Reply: 99

Task item: Next binder: H[Aib]QGTFTSD[Bip(OMe)][Bip(2Me)] [Seq. ID. No. 13: H-Aib-QGTFTSD-Bip(OMe)-Bip(2Me)]
Reply: 98

Task item: Entry HSQGTXTSDXX (α-Me-2F-Phe at 6; Bip(OMe) at 10; Bip(2Me) at 11) [Seq. ID. No. 21: HSQGT-(α-Me-2F-Phe)-TSD-Bip(OMe)-Bip(2Me)] please
Reply: 86

Task item: // next record HAQGT[αMePhe(2-F)]TSD[Bip(OMe)][Bip(2CF3)] [Seq. ID. No. 28: HAQGT-(α-Me-2F-Phe)-TSD-Bip(OMe)-Bip(2CF3)]
Reply: 92

Task item: // same read-out, input: HXQGTXTSDXX (not fully specified; ACP at 2; α-Me-2F-Phe at 6; Bip(OMe) at 10; Bip(Pyr) at 11) [Seq. ID. No. 34: H-(ACP)-QGT-(α-Me-2F-Phe)-TSD-Bip(OMe)-Bip(Pyr)]
Reply: 99

Task item: Next up: H[Ac3c]QGTFTSD[Bip(OMe)][Bip(2Me)] [Seq. ID. No. 17: H-(ACP)-QGTFTSD-Bip(OMe)-Bip(2Me)]
Reply: 99

Task item: // same read-out, input: HSQGTFTSD[Bip(OMe)][Bip(2F)] (not fully specified (C-terminus); printed as HSQGTFTSD-Bip(OMe)-Bip(2F)) [Seq. ID. No. 7: HSQGTFTSD-Bip(OMe)-Bip(2F)]
Reply: 90

Task item: Could you do the same for HXQGTXTSDXX (Aib at 2; α-Me-2F-Phe at 6; Bip(OMe) at 10; Bip(2CF3) at 11; C-terminal amide (CONH2)) [Seq. ID. No. 32: H-Aib-QGT-(α-Me-2F-Phe)-TSD-Bip(OMe)-Bip(2CF3)] , please?
Reply: 99

Task item: What do you have for H[Aib]QGTFTSD[Bip(OMe)][Bip(2F)] [Seq. ID. No. 15: H-Aib-QGTFTSD-Bip(OMe)-Bip(2F)] ?
Reply: 99

Task item: Try this binder next: H[Aib]QGTFTSD[Bip(OMe)][Bip(Pyr)] [Seq. ID. No. 14: H-Aib-QGTFTSD-Bip(OMe)-Bip(Pyr)]
Reply: 99

Task item: And then H[Aib]QGTFTSD[Bip(OMe)][Bip(2CF3)] [Seq. ID. No. 16: H-Aib-QGTFTSD-Bip(OMe)-Bip(2CF3)] , what is it?
Reply: 99

Task item: Again, but for HSQGTFTSD[Bip(OMe)][Bip(2Me)]-NH2 [Seq. ID. No. 5: HSQGTFTSD-Bip(OMe)-Bip(2Me)]
Reply: 86

Task item: What about this binder? HAQGTFTSD[Bip(OMe)][Bip(2F)] [Seq. ID. No. 11: HAQGTFTSD-Bip(OMe)-Bip(2F)]
Reply: 91

Task item: Request: HSQGTXTSDXX (α-Me-2F-Phe at 6; Bip(OMe) at 10; Bip(2F) at 11) [Seq. ID. No. 23: HSQGT-(α-Me-2F-Phe)-TSD-Bip(OMe)-Bip(2F)]
Reply: 90

Task item: // same read-out, input: HSQGTXTSDXX (α-Me-2F-Phe at 6; Bip(OMe) at 10; Bip(2CF3) at 11) [Seq. ID. No. 24: HSQGT-(α-Me-2F-Phe)-TSD-Bip(OMe)-Bip(2CF3)]
Reply: 87

Task item: Lookup HSQGTFTSD[Bip(OMe)][Bip(Pyr)] (not fully specified (C-terminus); printed as HSQGTFTSD-Bip(OMe)-Bip(Pyr)) [Seq. ID. No. 6: HSQGTFTSD-Bip(OMe)-Bip(Pyr)]
Reply: 88
